- TARGET_ENTITY: human full-length VWF (human, UniProt P04275 764-2813)
- PROCEDURE_TEXT: SPR, Biacore T200, antibody captured on Protein A, full-length VWF as analyte, single-cycle kinetics
READOUT_KIND: kon

binder="4-H3_H7_VL-par (antibody, human IgG1, kappa, V domains shown, also called 4-H3_H7 (hIgG1)) VH: QVQLVESGGGVVQPGRSLRLSCAASGIDLTSNAMNWVRQAPGKGLEWIGGIYGHDTSYYAAWAKGRFTISRDNSKNTVYLQMNSLRAEDTATYFCARGFIYFDIWGQGTLVTVSS VL: AYDMTQTPPSLSASVGETVRIRCLASEDIASGISWYQQKPGKPPTLLIYGASNLESGVPPRFSGSGSGTDYTLTIGGVQAEDAATYYCLGGYSFSSNGLTFGAGTKVEIKT" measured_value="29300 M⁻¹ s⁻¹"
binder="4-H3_H7_L0 rep (antibody, human IgG1, kappa, V domains shown, humanised, human IgG1 kappa) VH: QVQLVESGGGVVQPGRSLRLSCAASGIDLTSNAMNWVRQAPGKGLEWIGGIYGHDTSYYAAWAKGRFTISRDNSKNTVYLQMNSLRAEDTATYFCARGFIYFDIWGQGTLVTVSS VL: DIQMTQSPSSLSASVGDRVTITCLASEDIASGISWYQQKPGKAPKLLIYGASNLESGVPSRFSGSGSGTDFTLTISSLQPEDFATYYCLGGYSFSSNGLTFGGGTKVEIKT" measured_value="108000 M⁻¹ s⁻¹"
binder="1-A2_H1_VL-par (antibody, human IgG1, kappa, V domains shown, also called 1-A2_H1 (hIgG1)) VH: QVQLVESGGGVVQPGRSLRLSCAASGIDLTSNAMNWVRQAPGKGLEWVAGIYGHDTSYYAAWAKGRFTISRDNSKNTLYLQMNSLRAEDTAVYYCARGFIYFDIWGQGTLVTVSS VL: AIEMTQTPPSLSASVGETVRIRCLASEDIYSGISWYQQKPGKPPTLLIYGASNLESGVPPRFSGSGSGTDYTLTIGGVQAEDAATYYCLGGHSHSTTDLTFGAGTKVEIKT" measured_value="39800 M⁻¹ s⁻¹"
binder="4-H3_VH-par_L1 (antibody, human IgG1, kappa, V domains shown, also called 4-H3_L1 (hIgG1K)) VH: SQSLEESGGRLVPPGTPLTLTCTVSGIDLTSNAMNWVRQAPGKGLEWIGGIYGHDTSYYAAWAKGRFTISRTSTTVDLKMTRPTTDDTATYFCARGFIYFDIWGTGTLVTISS VL: DYQMTQSPSSLSASVGDRVTITCLASEDIASGISWYQQKPGKAPKLLIYGASNLESGVPSRFSGSGSGTDYTLTISSLQPEDFATYYCLGGYSFSSNGLTFGGGTKVEIKT" measured_value="12300 M⁻¹ s⁻¹"
binder="1-A2_H2_VL-par (antibody, human IgG1, kappa, V domains shown, also called 1-A2_H2 (hIgG1)) VH: QQLVESGGGVVQPGRSLRLSCAASGIDLTSNAMNWVRQAPGKGLEWIGGIYGHDTSYYAAWAKGRFTISRDSNTVYLQMNSLRAEDTATYFCARGFIYFDIWGQGTLVTVSS VL: AIEMTQTPPSLSASVGETVRIRCLASEDIYSGISWYQQKPGKPPTLLIYGASNLESGVPPRFSGSGSGTDYTLTIGGVQAEDAATYYCLGGHSHSTTDLTFGAGTKVEIKT" measured_value="24500 M⁻¹ s⁻¹"
binder="1-A2_H1_L0 (antibody, human IgG1, kappa, V domains shown, humanised, human IgG1 kappa) VH: QVQLVESGGGVVQPGRSLRLSCAASGIDLTSNAMNWVRQAPGKGLEWVAGIYGHDTSYYAAWAKGRFTISRDNSKNTLYLQMNSLRAEDTAVYYCARGFIYFDIWGQGTLVTVSS VL: DIQMTQSPSSLSASVGDRVTITCLASEDIYSGISWYQQKPGKAPKLLIYGASNLESGVPSRFSGSGSGTDFTLTISSLQPEDFATYYCLGGHSHSTTDLTFGGGTKVEIKT" measured_value="34900 M⁻¹ s⁻¹"
